Target: T1, Anti-HRP antibody(r)
T1 construct: Rabbit IgG, immobilised on a microplate; also called rabbit anti-HRP antibodies; anti-HRP antibody from a rabbit
Assay: labelled peptide on antibody immobilised on microplate; antigen HRP
Ends that are not written are not given here. FAM = carboxyfluorescein (FAM) fluorescent label
// reported fluorescence intensity at bottom (B) of microplate after antigen binding per item
Respond with the number and no other words.

Worked examples follow.
>>> test_value("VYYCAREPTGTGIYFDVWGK (not fully specified (N-terminus), Synthetic 20-mer homologous to the FR3 or FR4 region of the heavy chain; The label differs between experiments; also called H2 switching peptide; fourth peptide compound H2) [H2 peptide]")
1810
>>> test_value("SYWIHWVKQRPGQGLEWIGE (not fully specified (N-terminus), Synthetic 20-mer homologous to the FR2 region of the heavy chain; The fluorescent label differs between experiments; also called H1 switching peptide; third peptide compound H1) [H1 peptide]")
1450
>>> test_value("{FAM}-VYYCFQGSHVPFTK (Synthetic 14-mer homologous to the FR3 or FR4 region of the light chain; also called L2 switching peptide; second peptide compound L2) [L2 peptide]")
3210

Look up and state reported fluorescence intensity at bottom (B) of microplate after antigen binding for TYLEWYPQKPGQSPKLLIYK (not fully specified (N-terminus), Synthetic 20-mer homologous to the FR2 region of the light chain; The label differs between experiments; also called L1 switching peptide; first peptide compound L1) [L1 peptide]
1990
